assay: melting temperature; fluorescence melt of hairpins on a sequencing array, two-state fit, raised by 9.35 °C to match UV melts; conditions: sodium 0.088 M
The threshold is inclusive: Tm of exactly 50 °C counts as 1; values below receive -1.

Recorded results for 5 sequences are shown here.
GATCCTCTGAGGATC ((((((...)))))): 1
GCATCAACGAAAGTTTGC (((..(((....)))))): -1
GATCTTTGAAAAGATC ((((((....)))))): -1
GATCACCTCTGTGATC ((((((....)))))): 1
GGGCGTCGAAAGACCCC (((.(((....)))))): 1

Kindly consider the entry below.
Entry GGGTGTGCGAAAGCACCC (((..(((....)))))) : is its Tm no less than 50 °C?
1

Data credit: the array DNA melting data of Ke et al. (doi:10.1101/2024.01.08.574731)
